These measurements were taken from PubChem BioAssay AID604.

target: Rho-associated protein kinase 2 (Homo sapiens) (UniProt O75116); assay: inhibitors of human ROCK2 kinase, primary screen, biochemical, high-throughput, luminescence (AID 604); details: purified ROCK2, Kinase-Glo ATP depletion luminescence; at 6 µM; stronger effect = higher value;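 further: plate controls were DMSO wells for no effect and Y-27632 control wells after no-enzyme background subtraction for full effect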
Sequence (O75116 whole entry, looked up): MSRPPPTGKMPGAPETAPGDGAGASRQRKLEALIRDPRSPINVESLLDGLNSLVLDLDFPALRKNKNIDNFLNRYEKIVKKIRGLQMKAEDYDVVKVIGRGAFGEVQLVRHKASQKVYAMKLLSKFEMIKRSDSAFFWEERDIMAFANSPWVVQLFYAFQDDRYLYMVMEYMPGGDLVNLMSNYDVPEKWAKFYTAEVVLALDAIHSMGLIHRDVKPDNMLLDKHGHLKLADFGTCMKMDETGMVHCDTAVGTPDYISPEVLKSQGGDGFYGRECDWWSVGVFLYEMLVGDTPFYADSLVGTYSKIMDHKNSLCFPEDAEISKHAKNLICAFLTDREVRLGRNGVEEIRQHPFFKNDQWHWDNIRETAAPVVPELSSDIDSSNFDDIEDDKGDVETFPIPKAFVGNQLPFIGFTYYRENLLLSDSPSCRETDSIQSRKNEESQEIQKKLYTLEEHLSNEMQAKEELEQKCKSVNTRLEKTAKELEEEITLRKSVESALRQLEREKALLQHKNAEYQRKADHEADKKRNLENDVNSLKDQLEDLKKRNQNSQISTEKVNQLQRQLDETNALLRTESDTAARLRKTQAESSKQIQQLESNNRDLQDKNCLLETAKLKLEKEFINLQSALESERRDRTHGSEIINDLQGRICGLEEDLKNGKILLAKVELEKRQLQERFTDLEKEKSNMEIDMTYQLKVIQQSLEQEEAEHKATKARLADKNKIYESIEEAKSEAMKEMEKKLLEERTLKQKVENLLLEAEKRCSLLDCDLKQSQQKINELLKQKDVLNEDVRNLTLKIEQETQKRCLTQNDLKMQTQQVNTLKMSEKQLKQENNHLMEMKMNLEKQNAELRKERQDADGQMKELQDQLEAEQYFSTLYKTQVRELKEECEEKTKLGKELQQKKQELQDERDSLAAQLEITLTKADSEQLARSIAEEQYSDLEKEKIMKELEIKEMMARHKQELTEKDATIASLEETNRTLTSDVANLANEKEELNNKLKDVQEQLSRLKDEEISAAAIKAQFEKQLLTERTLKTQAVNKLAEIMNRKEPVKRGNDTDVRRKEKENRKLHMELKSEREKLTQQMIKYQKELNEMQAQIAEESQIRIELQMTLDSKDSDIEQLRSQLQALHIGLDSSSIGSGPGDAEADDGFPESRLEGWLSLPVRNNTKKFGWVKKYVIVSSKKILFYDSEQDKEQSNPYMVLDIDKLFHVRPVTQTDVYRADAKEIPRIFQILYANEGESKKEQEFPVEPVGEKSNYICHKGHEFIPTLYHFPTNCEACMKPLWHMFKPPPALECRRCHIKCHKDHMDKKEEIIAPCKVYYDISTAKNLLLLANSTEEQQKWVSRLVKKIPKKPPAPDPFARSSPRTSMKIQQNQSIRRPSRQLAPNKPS
Screen size: about 60,000 compounds; about 210 (0.35%) were called active. Only a selection was taken, and actives are over-represented in it overall.
Entries and their inhibition
Measured property: inhibition (%)

# Compound, Measurement
data = [
    ("C(=C\\c1ccccc1)/CSc1nnc(-c2cccnc2)n1Cc1ccco1", 5),
    ("CCCC(=O)Nc1ccc2c(c1)nc1n2CCSC1", -0.6),
    ("NC(=O)C1CCN(C2OC(=O)c3ccccc32)CC1 (configuration not stated)", 7.4),
    ("CC1CCCN(c2ccc(C(=O)NCCc3ccccc3)cn2)C1 (configuration not stated)", 7.3),
    ("CCn1nc(NC(=O)c2ccco2)c2cc3ccc(C)cc3nc21", -4.9),
    ("O=c1c(F)cn(C2CCCO2)c(=O)n1Cc1ccccc1Cl (configuration not stated)", -7.2),
    ("Cc1nc(-c2ccc(NC(=O)c3cccs3)cc2)cs1", -25),
    ("CCOC(=O)CC1=CC(=O)Nc2ccccc2N1", 7.2),
    ("CCc1nnc(NC(=O)CCC(=O)O)s1", -4.5),
    ("O=C(Nc1ccccc1F)c1cc(S(=O)(=O)N2CCCCC2)cs1", 9.5),
    ("N#CCCn1cnc2ccccc21", 0.3),
    ("CCOc1ccccc1N(CC(=O)NC1CCCCC1)C(=O)CCCC(=O)Nc1ccccn1", 4.8),
]

###

target: Rho-associated protein kinase 2 (Homo sapiens) (UniProt O75116); test: inhibitors of human ROCK2 kinase, primary screen, biochemical, high-throughput, luminescence (AID 604); settings: purified ROCK2, Kinase-Glo ATP depletion luminescence; at 6 µM; stronger effect = higher value;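 further: plate controls were DMSO wells for no effect and Y-27632 control wells after no-enzyme background subtraction for full effect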
About 210 (0.35%) of roughly 60,000 compounds were called active. This is one part of a sample in which actives are shown more often than they occur.

# Compound, inhibition, %
records = [
    ("CCn1c(=N)n(CC(=O)c2cccc(OC)c2)c2ccccc21", -1.1),
    ("CCCc1nc(SCC(=O)Nc2ccccc2OC)c2c(=O)n(C)c(=O)n(C)c2n1", 1.6),
    ("O=C(Nc1nc(-c2ccc3c(c2)OCO3)cs1)c1ccncc1", -1.2),
    ("Cc1nnc(NC2=NCCCCC2)o1", -0.7),
    ("Cc1nn(-c2ccccc2)c2[nH]c(C(F)(F)F)cc(=O)c12", -0.3),
    ("CCc1c(C)nc(N2CCN(Cc3ccccc3)CC2)[nH]c1=O", -0.6),
    ("O=CN1CCN(C2CC(=O)N(c3ccc4c(c3)OCO4)C2=O)CC1 (stereo not drawn)", 7),
    ("CC(=O)Cc1nsc(NC(=O)c2ccc(COc3ccc(C)cc3)o2)n1", 2.4),
    ("Cc1cc(Nc2ccccc2)n(CCC#N)n1", 4.6),
    ("COc1cc2c(cc1NC(=O)CN1CCN(S(=O)(=O)c3ccc(F)cc3)CC1)oc1ccccc12", 3.5),
    ("COc1ccc(OC)c2sc(NC(=O)C3COc4ccccc4O3)nc12 (stereo not drawn)", -3.1),
    ("O=C1CC(c2ccccc2)CC(O)=C1C=NCCN1CCOCC1 (stereo not drawn)", 3.3),
    ("O=P(c1ccc2c(c1)OCCO2)(N1CCOCC1)N1CCOCC1", -3.2),
    ("CCCC(=O)Nc1ccc(Cl)c(NC(=O)c2ccc(Br)o2)c1", -0.6),
    ("Cc1ccsc1-c1nc(CSCC(=O)NCCN2CCCC2)c(C)o1", -0.8),
    ("CC(C(=O)N1CCOCC1)N1c2cccc3cccc(c23)S1(=O)=O (stereo not drawn)", 11.3),
    ("Cc1ccc(N2CCN(S(=O)(=O)N(C)C)CC2)cc1Cl", 8.1),
    ("Brc1cnc(N2CCCC2)nc1N1CCCCC1", 2),
    ("Cc1cccc(OCc2nnc(SCC(=O)N3CCN(C(=O)c4ccco4)CC3)n2C)c1C", 3.2),
    ("Cc1ccc(C2c3c(oc4ccc(C)cc4c3=O)C(=O)N2CCCN2CCOCC2)cc1 (stereo not drawn)", -2.1),
    ("Cn1c(=O)c2c(n(Cc3ccccc3)c1=O)NC(=O)C2CC(=O)N1CCc2ccccc2C1 (stereo not drawn)", 6.4),
    ("O=C1CCCC2=C1C(c1cccs1)n1nc(SCc3ccccc3)nc1N2 (stereo not drawn)", 2),
    ("O=S(=O)(Nc1ccccn1)c1ccc(Oc2ccccc2)cc1", -6.5),
]
